target: recombinant human baculovirus-expressed GST-tagged FASN (Homo sapiens, UniProt P49327); construct: GST; assay: FASN enzyme activity assay, fluorescence-based detection of CoA with CPM; type: biochemical; conditions: 5 nM FASN, 150 μM NADPH, 10 μM acetyl-CoA, 25 μM malonyl-CoA, 90 minutes incubation; read-out: IC50 data for Compounds of Formulae I-V/V(a): Activity
Sequence (P49327 whole entry): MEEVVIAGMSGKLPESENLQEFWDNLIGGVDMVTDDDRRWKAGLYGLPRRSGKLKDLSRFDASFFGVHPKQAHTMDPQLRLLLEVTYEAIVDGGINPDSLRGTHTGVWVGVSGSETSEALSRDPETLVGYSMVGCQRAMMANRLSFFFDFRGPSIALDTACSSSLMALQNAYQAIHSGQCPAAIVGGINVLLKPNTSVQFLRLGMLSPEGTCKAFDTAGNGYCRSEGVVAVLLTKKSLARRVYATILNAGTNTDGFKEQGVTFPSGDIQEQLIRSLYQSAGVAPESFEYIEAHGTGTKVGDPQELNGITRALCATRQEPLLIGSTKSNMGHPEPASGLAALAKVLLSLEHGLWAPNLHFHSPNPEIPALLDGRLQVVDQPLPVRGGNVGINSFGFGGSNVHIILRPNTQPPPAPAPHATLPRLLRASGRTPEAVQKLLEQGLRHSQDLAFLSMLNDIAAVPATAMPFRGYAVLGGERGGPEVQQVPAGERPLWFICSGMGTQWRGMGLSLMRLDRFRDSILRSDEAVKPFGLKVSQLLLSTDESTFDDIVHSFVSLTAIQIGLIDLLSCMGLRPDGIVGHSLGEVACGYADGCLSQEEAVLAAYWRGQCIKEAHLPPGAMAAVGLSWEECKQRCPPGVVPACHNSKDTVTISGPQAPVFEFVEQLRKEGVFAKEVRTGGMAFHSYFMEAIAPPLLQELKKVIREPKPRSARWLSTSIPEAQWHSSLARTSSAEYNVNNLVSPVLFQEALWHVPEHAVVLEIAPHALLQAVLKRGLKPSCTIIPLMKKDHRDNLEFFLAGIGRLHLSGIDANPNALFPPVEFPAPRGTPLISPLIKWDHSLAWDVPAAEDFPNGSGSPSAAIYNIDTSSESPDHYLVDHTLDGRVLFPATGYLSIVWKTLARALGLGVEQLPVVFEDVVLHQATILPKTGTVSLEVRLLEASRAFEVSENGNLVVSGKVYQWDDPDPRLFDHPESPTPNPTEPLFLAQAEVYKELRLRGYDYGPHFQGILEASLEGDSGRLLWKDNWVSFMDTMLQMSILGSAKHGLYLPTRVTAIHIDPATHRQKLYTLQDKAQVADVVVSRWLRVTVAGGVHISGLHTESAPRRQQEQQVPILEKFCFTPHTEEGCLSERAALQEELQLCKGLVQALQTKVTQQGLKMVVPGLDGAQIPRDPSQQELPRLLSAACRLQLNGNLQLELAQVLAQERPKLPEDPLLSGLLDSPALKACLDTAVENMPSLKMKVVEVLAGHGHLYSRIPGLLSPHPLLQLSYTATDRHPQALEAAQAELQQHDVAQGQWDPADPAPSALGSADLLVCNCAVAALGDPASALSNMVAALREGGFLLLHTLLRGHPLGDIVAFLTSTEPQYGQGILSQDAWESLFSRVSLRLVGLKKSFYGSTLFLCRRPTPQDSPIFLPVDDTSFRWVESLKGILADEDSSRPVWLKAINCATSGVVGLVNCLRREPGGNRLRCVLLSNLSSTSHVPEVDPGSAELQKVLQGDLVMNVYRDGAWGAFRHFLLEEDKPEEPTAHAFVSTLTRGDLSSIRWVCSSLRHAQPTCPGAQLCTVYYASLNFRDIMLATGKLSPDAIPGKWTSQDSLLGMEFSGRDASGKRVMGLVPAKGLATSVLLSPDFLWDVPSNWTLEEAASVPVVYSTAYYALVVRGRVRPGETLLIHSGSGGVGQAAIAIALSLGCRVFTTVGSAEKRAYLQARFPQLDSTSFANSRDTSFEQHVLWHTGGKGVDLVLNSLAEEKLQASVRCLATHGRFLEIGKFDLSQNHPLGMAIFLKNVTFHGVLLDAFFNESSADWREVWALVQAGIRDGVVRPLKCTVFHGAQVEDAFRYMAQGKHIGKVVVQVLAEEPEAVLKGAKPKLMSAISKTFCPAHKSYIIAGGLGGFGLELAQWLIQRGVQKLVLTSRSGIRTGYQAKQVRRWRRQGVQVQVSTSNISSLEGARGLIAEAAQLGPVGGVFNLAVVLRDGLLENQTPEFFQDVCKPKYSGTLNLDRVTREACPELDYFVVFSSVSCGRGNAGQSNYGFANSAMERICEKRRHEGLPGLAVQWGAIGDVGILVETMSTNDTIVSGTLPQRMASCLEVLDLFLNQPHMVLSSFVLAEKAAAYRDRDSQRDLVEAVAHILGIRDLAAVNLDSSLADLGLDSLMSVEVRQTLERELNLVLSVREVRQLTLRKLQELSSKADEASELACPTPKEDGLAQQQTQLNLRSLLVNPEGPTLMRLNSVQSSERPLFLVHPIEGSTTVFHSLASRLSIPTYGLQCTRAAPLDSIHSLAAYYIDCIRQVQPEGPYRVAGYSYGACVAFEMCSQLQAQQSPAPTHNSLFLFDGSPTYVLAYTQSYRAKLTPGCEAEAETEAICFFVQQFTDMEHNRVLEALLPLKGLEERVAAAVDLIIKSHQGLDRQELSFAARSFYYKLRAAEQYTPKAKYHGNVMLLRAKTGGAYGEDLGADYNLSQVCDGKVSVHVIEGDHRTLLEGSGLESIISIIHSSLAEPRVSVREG
pIC50: −log10 of the molar value. Structures can show the parent of a compound that is named as a salt.
Task for the reader: assign each of the following molecules its reported pIC50.

Sample CC(C)C(=O)N1CCC(Oc2cc(F)c(-c3cnc4ccccc4c3)cc2F)CC1 ; pIC50 observed: 5.00 to 6.00

Sample O=C([C@H]1CCCO1)N1CCC(Oc2ccc(-c3ccc4nccn4c3Cl)cc2)CC1 [Example 295] ; pIC50 observed: 7.00 to 9.00

Sample O=C(C1CCC1)N1CCC(Oc2ccc(-c3cnc4ccccc4c3)cc2)CC1 [Example 101, HCl] ; pIC50 observed: 7.00 to 9.00

Sample O=C(c1ncco1)N1CCC(Oc2ccc(-c3cnc4ccccc4c3)cc2)CC1 [Example 123, HCl] ; pIC50 observed: 5.00 to 6.00
